Listing of entries alongside the reported Potency.
- tested-target: Glucocorticoid receptor (Homo sapiens)
- experiment-description: GR-EFC Redistribution (AID 451); note: potency is the fitted concentration of half-maximal effect
- setup-conditions: CHO-K1 GR-EFC translocation, beta-gal luminescence, 2 h
Active and inactive are the calls of the source. Calls come from the whole dose curve.
parameter-measured: Potency

O=C(O)CC/C=C\CC[C@H]1[C@@H](N2CCCCC2)[C@@H](O)C[C@@H]1OCc1ccc(-c2ccccc2)cc1 = > 46 µM (inactive)
CCN(CC)Cc1cc(Nc2ccnc3cc(Cl)ccc23)ccc1O = > 20.6 µM (inactive)
CC1(C)S[C@@H]2[C@H](NC(=O)[C@@H](NC(=O)N3CCNC3=O)c3ccccc3)C(=O)N2[C@H]1C(=O)O = > 20.6 µM (inactive)
O=C1CSC2(CCN(CCCN3c4ccccc4Sc4ccc(Cl)cc43)CC2)N1 = > 9.22 µM (inactive)
CC1(C)S[C@@H]2[C@H](NC(=O)Cc3ccccc3)C(=O)N2[C@H]1C(=O)O = > 20.6 µM (inactive)
O=C(O)CCC(=O)C(=O)O = > 9.22 µM (inactive)
COc1ccc(CCNC[C@H](O)c2ccc(O)cc2)cc1OC = > 46 µM (inactive)
CCCC(=O)Nc1ncnc2c1ncn2[C@@H]1O[C@@H]2COP(=O)(O)O[C@H]2[C@H]1OC(=O)CCC = > 46 µM (inactive)

---

- experiment-description: Drug repurposing screens with cells derived from glioblastoma tumor samples (AID 1345199); note: % is set by controls: 0 for no effect and ±100 for the full control effect; nearly all actives have a fitted effect of over 40% in size
- setup-conditions: GBM patient neurospheres viability, ATP luminescence, 48 h; at 46.1 µM (top of the series); tumour line C
Results filed as inconclusive are left out.
parameter-measured: activity, negative = cell killing (%)

CCCCCCCC(=O)O = -13.3
O=C(O)CCC(=O)C(=O)O = 3.09
C#CCOc1ccc2c(C)cc(=O)oc2c1 = -16.5
OC[C@H]1O[C@@H](n2cnc3c2NC=NC[C@H]3O)C[C@@H]1O = 8.32
CCCCC(=O)O[C@]1(C(=O)CO)[C@H](C)C[C@H]2[C@@H]3CCC4=CC(=O)C=C[C@]4(C)[C@@]3(F)[C@@H](O)C[C@@]21C = -23.5
CC1(C)S[C@@H]2[C@H](NC(=O)Cc3ccccc3)C(=O)N2[C@H]1C(=O)O = -5.88
O=C1CSC2(CCN(CCCN3c4ccccc4Sc4ccc(Cl)cc43)CC2)N1 = -24.2
C[C@]12C=CC(=O)C=C1CC[C@@H]1[C@@H]2[C@@H](O)C[C@@]2(C)[C@H]1CC[C@]2(O)C(=O)COC(=O)CCC(=O)O = 7.76
Nc1ncnc2c1ncn2[C@@H]1O[C@H](COP(=O)(O)OP(=O)(O)OP(=O)(O)O)[C@@H](O)[C@H]1O = 38.9
CCCCC/C=C\C/C=C\CCCCCCCC(=O)O = 11.8
CCOc1ccc2c(c1)C(C)=CC(C)(C)N2 = -10

---

- Tested on: PAD
- experiment-description: qHTS profiling for inhibitors of Plasmodium falciparum proliferation (AID 504749); note: nearly all actives have a fitted effect of over 60% in size
- setup-conditions: P. falciparum in erythrocytes, SYBR Green DNA, 72 h; series mostly up to 28.7 µM
Results filed as inconclusive are left out. The source made the active and inactive calls. The call rests on the fitted dose curve; in most records, active means well fitted inhibition curve with a large enough effect; inconclusive means small, poorly fitted or top-dose-only effect; inactive means flat fitted curve, though single readings scatter. Peptide text beside a SMILES is read from it.
Outcome codes: 1 (yes) = active, 0 (no) = inactive

O=C(O)CCC(=O)C(=O)O = 0 (no)
C[C@@H]1CCC2[C@@H](C)[C@@H](O)O[C@@H]3O[C@@]4(C)CC[C@@H]1[C@@]23OO4 (stereo not given in full) = 1 (yes)
CCCC(=O)O[C@]1(C(=O)CCl)[C@H](C)C[C@@H]2[C@H]3CCC4=CC(=O)C=C[C@]4(C)[C@@]3(F)C(=O)C[C@@]21C = 1 (yes)
COC(C(=O)C(O)C(C)O)C1Cc2cc3cc(OC4CC(OC5CC(O)C(O)C(C)O5)C(O)C(C)O4)c(C)c(O)c3c(O)c2C(=O)C1OC1CC(OC2CC(OC3CC(C)(O)C(O)C(C)O3)C(O)C(C)O2)C(O)C(C)O1 (stereo not given) = 1 (yes)
COC(=O)CCC(=O)CN = 0 (no)
CN=C(NC#N)Nc1ccc(C2=NNC(=O)C[C@@H]2C)cc1 = 0 (no)
O=S(=O)(O)O = 0 (no)
CC(=O)Oc1c(C)cc(OCC(O)CNC(C)C)c(C)c1C (stereo not given) = 0 (no)
O=S(=O)(O)c1cc(O)c2c(N=Nc3ccc(Nc4ccccc4)c4c(S(=O)(=O)O)cccc34)cc(S(=O)(=O)O)cc2c1 = 0 (no)
COc1ccc2c3c1O[C@H]1C[C@@H](O)C=C[C@@]31CCN(C)C2 = 0 (no)
CC(NNC(=O)c1ccccc1)c1ccccc1 (stereo not given) = 0 (no)
C[C@]12CCC(=O)C=C1CC[C@@H]1[C@@H]2[C@@H](O)C[C@@]2(C)[C@H]1CC[C@]2(O)C(=O)COP(=O)(O)O = 0 (no)
CC(=O)N[C@@H](CC(=O)O)C(=O)N[C@@H](CCC(=O)O)C(=O)O (Ac-Asp-Glu-OH) = 0 (no)
Cc1cn([C@H]2C[C@H](O)[C@@H](CO)O2)c(=O)[nH]c1=O = 0 (no)
CC[N+](C)(C)Cc1ccccc1Br = 0 (no)
CC1(C)S[C@@H]2[C@H](NC(=O)[C@@H](NC(=O)N3CCNC3=O)c3ccccc3)C(=O)N2[C@H]1C(=O)O = 0 (no)
C#CCOc1ccc2c(C)cc(=O)oc2c1 = 0 (no)
Cc1c(C)c2c(c(C)c1O)CC[C@@](C)(CCC[C@@H](C)CCC[C@@H](C)CCCC(C)C)O2 = 0 (no)
O=S(=O)(O)c1ccc2c(N=Nc3ccc(S(=O)(=O)O)c4ccccc34)c(O)c(S(=O)(=O)O)cc2c1 = 0 (no)
Cc1cc(C(=O)NNCc2ccccc2)no1 = 0 (no)
CCC(=O)NCCC1CCc2ccc3c(c21)CCO3 (stereo not given) = 0 (no)
CCCCCCC(O)C/C=C/CCCCCCCC(=O)O (stereo not given) = 0 (no)
CC(O)CO (stereo not given) = 0 (no)
CC1=C(/C=C/C(C)=C/C=C/C(C)=C/C=C/C=C(C)/C=C/C=C(C)/C=C/C2=C(C)CCCC2(C)C)C(C)(C)CCC1 = 0 (no)
NC(=O)c1ncn(C2OC(CO)C(O)C2O)n1 (stereo not given) = 0 (no)
O=C(COc1ccc(Cl)cc1)OCCNC12CC3CC(CC(C3)C1)C2 = 0 (no)
IC(I)I = 0 (no)
CC(C)=O = 0 (no)
C=CCSSSCC=C = 0 (no)
O=C(O)CN(CCN(CC(=O)O)CC(=O)O)CC(=O)O = 0 (no)
